# Test system: human red blood cells (hRBC)
# Run Conditions: red cells of human, 1 h
Starred links: 1 amine or outer side, 2 acyl side, 3 side chain; linkers in the order of their positions; H or OH if unused. Positions of bridges follow the written chain, without caps; N, C: chain ends. Non-standard residues stand in square brackets, D forms with d. Residues, ends and D or L forms follow the SMILES beside them. X2 = O=C(CC[C@H](Cc1ccc(O)cc1)N[*:1])[*:2]; Dab = NCC[C@H](N)C(=O)O
Hemolysis at 100 μM listing for selected molecules.
Kindly provide the numeric value in % only, without the unit symbol.

Molecule: C[C@@H]1NC(=O)[C@H](Cc2c[nH]cn2)NC(=O)[C@H](Cc2ccc(O)cc2)NC(=O)[C@@H]2CCCN2C(=O)[C@@H](Cc2cn(Cc3ccccc3)cn2)NC(=O)[C@H](CCCCN)NC(=O)[C@H](CCC(N)=O)NC(=O)[C@H](Cc2ccc(O)cc2)NC(=O)[C@@H]2CSSC[C@H](NC1=O)C(=O)N[C@@H](CO)C(=O)N[C@@H](C)C(=O)N1CCC[C@@H]1C(=O)N[C@@H](CCN)C(=O)N[C@@H](CCCNC(=N)N)C(=O)N[C@@H](Cc1ccc(O)cc1)C(=O)N2 [compound 5]
Unit String: %
Readout Value: 1
--
Molecule: C[C@@H]1NC(=O)[C@H](Cc2c[nH]cn2)NC(=O)[C@H](Cc2ccc(O)cc2)NC(=O)[C@@H]2CCCN2C(=O)[C@@H](Cc2ccc(O)cc2)N(C)C(=O)[C@H](CCCCN)NC(=O)[C@H](CCC(N)=O)NC(=O)[C@H](Cc2ccc(O)cc2)NC(=O)[C@@H]2CSSC[C@H](NC1=O)C(=O)N[C@@H](CO)C(=O)N[C@@H](C)C(=O)N1CCC[C@@H]1C(=O)N[C@@H](CCN)C(=O)N[C@@H](CCCNC(=N)N)C(=O)N[C@@H](Cc1ccc(O)cc1)C(=O)N2 [compound 7]
Unit String: %
Readout Value: 0.6

Pending molecule:
[in] Could you tell me which Hemolysis at 100 μM is on file for C[C@@H]1NC(=O)[C@H](Cc2c[nH]cn2)NC(=O)CC[C@H](Cc2ccc(O)cc2)NC(=O)[C@@H]2CCCN2C(=O)[C@H]2CCCN2C(=O)[C@H](CCCCN)NC(=O)[C@H](CCC(N)=O)NC(=O)[C@H](Cc2ccc(O)cc2)NC(=O)[C@@H]2CSSC[C@H](NC1=O)C(=O)N[C@@H](CO)C(=O)N[C@@H](C)C(=O)N1CCC[C@@H]1C(=O)N[C@@H](CCN)C(=O)N[C@@H](CCCNC(=N)N)C(=O)N[C@@H](Cc1ccc(O)cc1)C(=O)N2 [compound 18] (cyclo([X2]HACSA[dP][Dab]RYCYQK[dP]P); disulfide 4-11) ?
[out] 1.4

----------
Catalogue of molecules with associated Hemolysis at 100 μM
# Tested on: human red blood cells (hRBC)
# Run Conditions: red cells of human, 1 h
# Protocol: The peptides were tested for their hemolytic activity against human red blood cells (hRBC). Fresh hRBC were washed three times with phosphate buffered saline (PBS) and centrifuged for 10 min at 2000×g. […] A value of 0% and 100% cell lyses, respectively, was determined by incubation of hRBC in the presence of PBS alone and 0.1% Triton X-100 in H2O, respectively. The samples were centrifuged, the supernatants were 20-fold diluted in PBS buffer and the optical densities (OD) were measured at 540 nm. […]
Numbers only; they are read as %.

[in] Reported Hemolysis at 100 μM for CC[C@@H](C)[C@@H]1C(=O)N2CCC[C@H]2C(=O)N[C@@H](Cc2ccc(O)cc2)C(=O)N[C@@H](Cc2c[nH]cn2)C(=O)N[C@@H](C)C(=O)N[C@H]2CSSC[C@H](NC(=O)[C@H](Cc3ccc(O)cc3)NC(=O)[C@H](CCCNC(=N)N)NC(=O)[C@H](CCN)NC(=O)[C@H]3CCCN3C(=O)[C@H](C)NC(=O)[C@H](CO)NC2=O)C(=O)N[C@@H](Cc2ccc(O)cc2)C(=O)N[C@@H](CCC(N)=O)C(=O)N[C@@H](CCCCN)C(=O)N1C : what is it?
[out] 0.6
